// provenance: PubChem BioAssay AID1421

Reported PGE2 EC50 with compound values for the following compounds.
# measured-target: Prostaglandin E2 receptor EP2 subtype (Homo sapiens)
# measurement-notes: EP2 receptor modulators, dose response, cell-based, human EP2, PGE2 EC50 shift (AID 1421)
# assay-context: EP2-expressing cells, PGE2 EC50 shift by compound; measured here: PGE2 EC50 at 6.7 uM compound

compound	unit-abbreviation	PGE2 EC50 with compound
CCCCc1nnc(SCCSc2nnc(CCCC)n2N)n1N	nM	1
Cc1cccc2cc(CN(Cc3cccs3)C3(c4nnnn4C4CCCC4)CCCC3)c(=O)[nH]c12	nM	1.08
CC1=CC2C(C(C)C)CCC(C)(O)C2CC1 (configuration not stated)	nM	0.68
COc1ccc(-c2cc(C(F)(F)F)nc(N3CCOCC3)n2)cc1OC	nM	1.53
CC1(c2ccccc2)CC(C)(C)N(C(=O)C2CCCO2)c2ccccc21 (configuration not stated)	nM	0.9
N#CC1(Cc2ccccc2Cl)c2ccccc2C=CN1C(=O)c1ccccc1 (configuration not stated)	nM	1.54
CCOc1ccccc1-c1nc2c(C(C)(C)C)nn(C)c2c(=O)[nH]1	nM	1.51
O=C(Nc1ccccc1)c1nn(-c2cccc(C(F)(F)F)c2)ccc1=O	nM	2.72
CCC(c1nnnn1C1CCCC1)N(Cc1cccs1)Cc1cc2cc(C)ccc2[nH]c1=O (configuration not stated)	nM	0.33
Cc1cccc(CSc2ncnc3ccccc23)c1	nM	0.87
Cc1cccc(-c2nc(=S)c3c(n2Cc2ccco2)CCCC3)c1	nM	0.88
CC(=O)O[C@H]1C[C@@H](OC(C)=O)C(C)(C)C2C[C@@H](OC(C)=O)[C@]3(C)C([C@H](OC(C)=O)C[C@@]4(C)[C@H](c5ccoc5)OC(=O)[C@H]5O[C@]543)[C@]21C (some centres not stated)	nM	1.05
COc1ccc(C2=NN(C(=O)c3cccs3)C(c3ccccc3O)C2)cc1 (configuration not stated)	nM	0.51
Cc1ccc(C)n1-c1sc2c(c1C#N)CCCC2	nM	2.65
Cc1ccc(N=Cc2cc(Cc3ccccc3Cl)cc([N+](=O)[O-])c2O)c(O)c1	nM	0.6
CCCCn1c(=O)c2ccccc2c2ccccc2c1=O	nM	0.96
CCCCNc1nc2c(S(=O)(=O)c3ccccc3)nnn2c2ccccc12	nM	1.17
Nc1n[nH]c2c1C1(CCCCC1)Cc1ccccc1-2	nM	2.69
Cc1cc(C(=O)NCC(c2ccco2)N(C)C)no1 (configuration not stated)	nM	2.55
CC(C)(C)C1CCC(=NNc2ccc(S(N)(=O)=O)cc2[N+](=O)[O-])CC1 (configuration not stated)	nM	1.01
CCOC(=O)c1c(NC(=O)COC(=O)Cn2c(C)nc3ccccc32)sc2c1CCCC2	nM	1.02
CCCCOP(=O)(OCCCC)C(Nc1ccccc1)c1ccc2c(c1)OCO2 (configuration not stated)	nM	0.8
